tested on: clinical methicillin-resistant Staphylococcus aureus (MRSA) isolates; test: MIC/MBC against clinical MRSA isolates; settings: MRSA / NRS123 / USA400
# key: entry, value: MIC
Dear colleague, please return just the value in µM, with no unit written.

O=C(O)c1cc(S(=O)(=O)Nc2ccc(CCC3CCCCC3)cc2)ccc1O [Compound 2l] : 16
CC(C)CCCCc1ccc(NS(=O)(=O)c2ccc(O)c(C(=O)O)c2)cc1 [Compound 2j] : 16
CCCCCCCCCCc1ccc(NS(=O)(=O)c2ccc(O)c(C(=O)O)c2)cc1 [Compound 2f] : 4

Query compound follows.
Query: Assign MIC to the following record: CCCCCCCc1ccc(NS(=O)(=O)c2ccc(O)c(C(=O)O)c2)cc1 [Compound 2e]
Result: 32
